test: beta-lactam sensitization of Mtb H37Rv, H37Rv (AID 434955);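 also: growth measured after seven days incubation then overnight dye step; 0% = bacteria only wells and 100% = bacteria with antibiotic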; settings: M. tuberculosis H37Rv growth with meropenem, percent inhibition; measured here: primary screen without meropenem; at 25 µM
The campaign covered roughly 330,000 compounds. About 880 (0.27%) were called active. Roughly 1% stayed inconclusive and do not appear here. Only a sample is shown.
Catalogue of molecules with associated inhibition
Form field: result (number plus unit)

Consider the following illustrative entries.
- MOLECULE: "CC(=O)Nc1ccc(N2C(=O)CC(Sc3nccc(C)n3)C2=O)cc1 (stereo not drawn)"
  inhibition: "-1.37%"
- MOLECULE: "O=C(Cn1cnc2c(cnn2-c2ccc(F)cc2)c1=O)NCCc1ccccc1"
  inhibition: "5.1%"
- MOLECULE: "COc1ccc(C(=O)NC(C)Cn2nc(C)cc2C)cc1OC1CCN(C(C)=O)CC1 (stereo not drawn)"
  inhibition: "-5.6%"

Read the entry CC(NC(=S)NC1CCCCC1)C(c1ccccc1)N1CCOCC1 (stereo not drawn) and write its reported inhibition.
-9.18%

Read the entry CN1CCN(NC(=O)Nc2ccc(Br)cc2)CC1 and write its reported inhibition.
6.69%

Read the entry CCC1CO/C(=C(\C(=C(Cl)Cl)N2CCOCC2)[N+](=O)[O-])N1 (stereo not drawn) and write its reported inhibition.
-10.3%

Read the entry O=S(=O)(NCC1CC1)c1ccc(F)c(Cl)c1 and write its reported inhibition.
1.07%

Read the entry C[C@H]1CN([C@@H](C)CO)C(=O)Cc2cc(NS(C)(=O)=O)ccc2O[C@@H]1CN(C)CC1CC1 and write its reported inhibition.
2.75%

Read the entry CC(C)c1ccc(NC(=O)CCN2C(=O)c3ccc([N+](=O)[O-])cc3C2=O)cc1 and write its reported inhibition.
-6.43%

Read the entry O=C(NCCCCCCCCCNC(=O)C(F)(F)F)C(F)(F)F and write its reported inhibition.
10.9%

Read the entry CSCCC(Nc1ccc(S(=O)(=O)N2CCOCC2)cc1[N+](=O)[O-])C(=O)OCC(=O)N(C(C)C)C(C)C (stereo not drawn) and write its reported inhibition.
2.01%

---

assay: beta-lactam sensitization of Mtb H37Rv, H37Rv (AID 434955);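 also: growth measured after seven days incubation then overnight dye step; 0% = bacteria only wells and 100% = bacteria with antibiotic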; settings: M. tuberculosis H37Rv growth with meropenem, percent inhibition; measured here: primary screen without meropenem; at 25 µM
The campaign covered roughly 330,000 compounds. About 880 (0.27%) were called active. Roughly 1% stayed inconclusive and do not appear here. Only a sample is shown.
REPORTED ENDPOINT: inhibition (%)
Write the number in % without appending the unit.

- COMPOUND: "Cn1nnnc1-c1cc(Cl)cc(Cl)c1"
  REPORTED ENDPOINT: "inhibition"
  RECORDED RESULT: -5.1
- COMPOUND: "COc1ccc(C2C(C(C)=O)=C(O)C(=O)N2c2nccs2)cc1 (configuration not stated)"
  REPORTED ENDPOINT: "inhibition"
  RECORDED RESULT: -1.43
- COMPOUND: "COc1cccc(N2CC(NC(=O)c3ccc4ccccc4c3)CC2=O)c1 (configuration not stated)"
  REPORTED ENDPOINT: "inhibition"
  RECORDED RESULT: 10.2

Read the entry CO/N=C(/CS(=O)(=O)c1ccc(Br)cc1)c1ccc(OC)cc1 and write its reported inhibition.
-5.94

Read the entry CSc1ccc(CN2C(=O)NC3(CCCCCC3)C2=O)cc1 and write its reported inhibition.
5.94

Read the entry Cc1csc(Nc2ccc(Cl)cc2)[n+]1-c1ccc(Cl)cc1 and write its reported inhibition.
-4.07

Read the entry COc1ccccc1-c1oc2ccccc2c1C#CCCCCO and write its reported inhibition.
7.25

Read the entry COc1ccc(C)cc1NC(=O)C(OC(=O)c1cccc(S(=O)(=O)N(C)c2ccccc2)c1)c1ccccc1 (configuration not stated) and write its reported inhibition.
9.6

Read the entry CC/S(CC1CC1(Cl)Cl)=N\S(=O)(=O)c1ccc(C)cc1 (configuration not stated) and write its reported inhibition.
-11.9

Read the entry CCOc1ccc(C(O)Cn2c(=N)n(CCN3CCCCC3)c3ccccc32)cc1 (configuration not stated) and write its reported inhibition.
3.41

Read the entry O=C(C1CC(=O)N(C2CCCCC2)C1)N1CCN(c2ccccc2)CC1 (configuration not stated) and write its reported inhibition.
1.29

Read the entry COC(=O)CC(=O)N1CCN(c2ccc(Cl)c(Cl)c2)CC1 and write its reported inhibition.
97.6

Read the entry Cc1ccc(OCC(=O)Oc2ccccc2[N+](=O)[O-])cc1 and write its reported inhibition.
-11.4

Read the entry COc1cc(NS(=O)(=O)c2ccc(NC(=O)c3ccc(S(=O)(=O)N4CCCCC4)cc3)cc2)ncn1 and write its reported inhibition.
-4.25

Read the entry COc1ccc(-c2cc(=O)oc3cc(OC(C)C(=O)Nc4ccc(CN5CCOCC5)cc4)ccc23)cc1 (configuration not stated) and write its reported inhibition.
96.8

Read the entry Cc1ccc2nc(-c3ccc(NC(=O)CN(C)S(=O)(=O)c4ccccc4)cc3)sc2c1 and write its reported inhibition.
3.33

Read the entry Cc1cc(C)cc(N(CCC#N)C(=O)CN2C(=O)NC3(CCCC3)C2=O)c1 and write its reported inhibition.
-6.67

Read the entry Cc1ccc(N(CC(=O)NC2CCCCC2)C(=O)CCCC(=O)Nc2ccccn2)c(C)c1 and write its reported inhibition.
-1.01

Read the entry CC(C)(C)C1CCc2c(sc3nc(SCC(N)=O)nc(N)c23)C1 (configuration not stated) and write its reported inhibition.
99.3

Read the entry CN(c1ccccc1)S(=O)(=O)c1cccc(C(=O)NNC(=O)c2ccncc2)c1 and write its reported inhibition.
10.4

Read the entry COCCNC(=O)C(c1ccc(O)cc1)N(C(=O)CCC(=O)Nc1nccs1)c1ccc(C)cc1 (configuration not stated) and write its reported inhibition.
-1.6

Read the entry Cc1ccc(-n2cc(CN(C)Cc3nccn3C)c(-c3cccc(C)c3)n2)cc1 and write its reported inhibition.
99.4

Read the entry Cc1ccc(N2C(=O)CC(NCc3ccc4c(c3)OCO4)C2=O)cc1Cl (configuration not stated) and write its reported inhibition.
0.64

---

Catalogue of molecules with associated inhibition
assay: beta-lactam sensitization of Mtb H37Rv, H37Rv (AID 434955);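 also: growth measured after seven days incubation then overnight dye step; 0% = bacteria only wells and 100% = bacteria with antibiotic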; settings: M. tuberculosis H37Rv growth with meropenem, percent inhibition; at 25 µM; stronger effect = higher value
In all, about 330,000 compounds went through this assay and about 880 (0.27%) were called active. Inconclusive results (about 1%) are left out. Only a sample is shown.
Write the number in % without appending the unit.

Consider the following illustrative entries.
- MOLECULE: "CCN(CCn1cccn1)C(=O)CC1C(=O)NCCN1Cc1cccc(OC)c1OC (stereo unspecified)"
  inhibition / %: -2.12
- MOLECULE: "CC(=O)C1=C(C)NC(=O)NC1c1ccc2c(c1)OCO2 (stereo unspecified)"
  inhibition / %: -1.59
- MOLECULE: "CN(C)Cc1ccccc1C1(O)c2ccccc2CSc2ccccc21 (stereo unspecified)"
  inhibition / %: -0.96

Read the entry CN(CC(=O)Nc1ccc(S(=O)(=O)N2CCCC2)cc1)Cc1ccc(Cl)c(Cl)c1 and write its reported inhibition.
1.99

Read the entry CCSCc1nc(N)nc(NCCc2ccccc2)n1 and write its reported inhibition.
0.44

Read the entry Cc1ccc(OCC(=O)Oc2ccccc2[N+](=O)[O-])cc1 and write its reported inhibition.
-3.48

Read the entry COc1ccc(NC2CCCN(C(=O)c3ccncc3)C2)cc1 (stereo unspecified) and write its reported inhibition.
-5.62

---

Catalogue of compounds with associated inhibition
experiment: beta-lactam sensitization of Mtb H37Rv, H37Rv (AID 434955);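 also: growth measured after seven days incubation then overnight dye step; 0% = bacteria only wells and 100% = bacteria with antibiotic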; conditions: M. tuberculosis H37Rv growth with meropenem, percent inhibition; at 25 µM; stronger effect = higher value
The campaign covered roughly 330,000 compounds. About 880 (0.27%) were called active. Not shown: some 1% with an inconclusive outcome. Only a sample is shown.
Write the number in % without appending the unit.

Consider the following illustrative entries.
- COMPOUND: "Cc1ccc(C(=O)NN(CCC#N)C2=NS(=O)(=O)c3ccccc32)cc1"
  UNIT NAME: "%"
  inhibition: -5.01
- COMPOUND: "C=CCSc1ccc(S(=O)(=O)N2CCN(C)CC2)cn1"
  UNIT NAME: "%"
  inhibition: -0.58
- COMPOUND: "Cc1ccc2nc(-c3ccc(NC(=O)CN(C)S(=O)(=O)c4ccccc4)cc3)sc2c1"
  UNIT NAME: "%"
  inhibition: 11.9
- COMPOUND: "Cc1ccc(S(=O)(=O)N(C)c2ccc(OCC(=O)OCc3ccc(C#N)cc3)cc2)cc1"
  UNIT NAME: "%"
  inhibition: 94.4
- COMPOUND: "CSCCC(Nc1ccc(S(=O)(=O)N2CCOCC2)cc1[N+](=O)[O-])C(=O)OCC(=O)N(C(C)C)C(C)C (stereo not given)"
  UNIT NAME: "%"
  inhibition: 3.64

Read the entry CCn1c(/C=N/NC(=O)c2ccc(OC)cc2)nc2ccccc21 and write its reported inhibition.
99.1

Read the entry COc1ccc(S(=O)(=O)N2CCCCC2)cc1NC(=O)c1cc([N+](=O)[O-])ccc1N1CCOCC1 and write its reported inhibition.
-11.2

Read the entry Cc1cc(NC(=O)OC(C)C)ccc1-c1ccc(NC(=O)OC(C)C)cc1C and write its reported inhibition.
0.85

Read the entry COc1ccc(-c2ccc(OC(=O)NC3CCS(=O)(=O)C3)cc2)cc1 (stereo not given) and write its reported inhibition.
87.1

Read the entry O=S(=O)(NCC1CC1)c1ccc(F)c(Cl)c1 and write its reported inhibition.
-3.45

Where these numbers come from: PubChem BioAssay AID434955
